measurement-target: Substance-K receptor (Homo sapiens, UniProt P21452); further: in other assays of this panel Not Active means under 50% inhibition at 10 µM
Sequence (P21452 whole entry): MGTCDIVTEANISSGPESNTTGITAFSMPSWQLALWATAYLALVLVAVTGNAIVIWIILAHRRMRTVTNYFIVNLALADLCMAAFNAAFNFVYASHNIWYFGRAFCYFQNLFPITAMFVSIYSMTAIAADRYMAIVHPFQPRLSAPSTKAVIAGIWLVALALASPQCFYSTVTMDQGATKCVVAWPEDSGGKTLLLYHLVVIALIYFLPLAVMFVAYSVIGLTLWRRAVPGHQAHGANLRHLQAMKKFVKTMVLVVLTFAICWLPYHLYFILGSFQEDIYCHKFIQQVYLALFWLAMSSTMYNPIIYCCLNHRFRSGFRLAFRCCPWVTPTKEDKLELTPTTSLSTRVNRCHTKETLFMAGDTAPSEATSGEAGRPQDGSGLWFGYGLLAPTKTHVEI
Assay type: cell membranes, CHO, Membrane
assay-setup: cho
reported-property: IC50

Some molecules with recorded IC50:
C#C[C@]1(O)CC[C@H]2[C@@H]3CCC4=CC(=O)CC[C@@H]4[C@H]3CC[C@@]21C [NORETHINDRONE]
Not Active
CCN(CC)CCNC(=O)c1cc(Cl)c(N)cc1OC [METOCLOPRAMIDE]
Not Active
C[C@H]1C[C@H]2[C@@H]3CCC4=CC(=O)C=C[C@]4(C)[C@@]3(F)[C@@H](O)C[C@]2(C)[C@@]1(O)C(=O)CO [BETAMETHASONE]
Not Active
C[N+](C)(C)CCOP(=O)([O-])OC[C@H](O)CO
Not Active
c1ccc2c(c1)Nc1ccccc1S2 [PHENOTHIAZINE]
Not Active

Request: IC50, test system Substance-K receptor (Homo sapiens, UniProt P21452), entry CCN1CCN(C(=O)N[C@@H](C(=O)N[C@@H]2C(=O)N3[C@@H]2SC(C)(C)[C@@H]3C(=O)O)c2ccccc2)C(=O)C1=O [PIPERACILLIN]; further: in other assays of this panel Not Active means under 50% inhibition at 10 µM
Not Active

Then this molecule: Nc1ccc(Cc2ccc(N)cc2)cc1
Not Active

Another molecule: O=C1CC[C@@]2(O)[C@H]3Cc4ccc(O)c5c4[C@@]2(CCN3CC2CC2)[C@H]1O5 [NALTREXONE]
Not Active

* * *

method-description: DRUGMATRIX: Glutamate, NMDA, Agonism radioligand binding (ligand: [3H] CGP-39653)
Format: cell membranes, Rattus norvegicus, Wistar, Cerebral cortex, Membrane
assay-setup: Not Active = under 50% inhibition at 10 µM
reported-property: Ki

COc1cc(NC(C)CCCN)c2ncccc2c1 (centres undefined) [PRIMAQUINE]
Not Active
NC(N)=Nc1nc(CSCCC(N)=NS(N)(=O)=O)cs1 [FAMOTIDINE]
Not Active
O=C1CN(/N=C/c2ccc([N+](=O)[O-])o2)C(=O)N1 [NITROFURANTOIN]
Not Active
O=c1[nH]cnc2c1ncn2[C@H]1CC[C@@H](CO)O1 [DIDANOSINE]
Not Active
Nc1nc(F)nc2c1ncn2[C@@H]1O[C@H](CO)[C@@H](O)[C@@H]1O [FLUDARABINE]
Not Active

Give the measured Ki of CCN1CCN(C(=O)N[C@@H](C(=O)N[C@@H]2C(=O)N3[C@@H]2SC(C)(C)[C@@H]3C(=O)O)c2ccccc2)C(=O)C1=O [PIPERACILLIN] .
Not Active

One more molecule: CC(=O)[C@]1(O)Cc2c(O)c3c(c(O)c2[C@@H](O[C@H]2C[C@H](N)[C@H](O)[C@H](C)O2)C1)C(=O)c1ccccc1C3=O [IDARUBICIN]
Not Active

Would you mind doing CN(Cc1cc(Br)cc(Br)c1N)C1CCCCC1 [BROMHEXINE] as well?
Not Active

Then O=C(O)CNCP(=O)(O)O [GLYPHOSATE] ?
Not Active

* * *

measurement-target: Delta-type opioid receptor (Homo sapiens); further: in other assays of this panel Not Active means under 50% inhibition at 10 µM
Sequence (P41143 whole entry): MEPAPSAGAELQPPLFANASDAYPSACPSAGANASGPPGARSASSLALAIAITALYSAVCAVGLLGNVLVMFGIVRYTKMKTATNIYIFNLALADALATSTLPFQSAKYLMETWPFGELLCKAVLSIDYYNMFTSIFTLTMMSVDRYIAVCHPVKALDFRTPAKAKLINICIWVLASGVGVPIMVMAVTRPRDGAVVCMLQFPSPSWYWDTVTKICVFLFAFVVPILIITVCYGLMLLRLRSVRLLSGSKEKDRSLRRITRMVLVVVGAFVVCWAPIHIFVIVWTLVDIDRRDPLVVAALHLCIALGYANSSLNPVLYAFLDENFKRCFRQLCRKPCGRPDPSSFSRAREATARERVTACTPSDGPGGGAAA
Format: cell membranes, HEK293, Membrane
assay-setup: read-out: Ki
Each entry below carries its reported pKi.
Conceptually, pKi converts a concentration in mol/L into minus its log10.

CN(CCOc1ccc(C[C@H](Nc2ccccc2C(=O)c2ccccc2)C(=O)O)cc1)c1ccccn1
5.95

Now take the following molecule into account.
// returns reported pKi for input CC1(COc2ccc(CC3SC(=O)NC3=O)cc2)CCCCC1 (configuration not stated)
5.02

* * *

measurement-target: Angiotensin-converting enzyme (Oryctolagus cuniculus);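 further: enzymatic inhibition of angiotensin-converting enzyme measured with FAPGG as the substrate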; further: in other assays of this panel Not Active means under 50% inhibition at 10 µM
Sequence (P12822 whole entry): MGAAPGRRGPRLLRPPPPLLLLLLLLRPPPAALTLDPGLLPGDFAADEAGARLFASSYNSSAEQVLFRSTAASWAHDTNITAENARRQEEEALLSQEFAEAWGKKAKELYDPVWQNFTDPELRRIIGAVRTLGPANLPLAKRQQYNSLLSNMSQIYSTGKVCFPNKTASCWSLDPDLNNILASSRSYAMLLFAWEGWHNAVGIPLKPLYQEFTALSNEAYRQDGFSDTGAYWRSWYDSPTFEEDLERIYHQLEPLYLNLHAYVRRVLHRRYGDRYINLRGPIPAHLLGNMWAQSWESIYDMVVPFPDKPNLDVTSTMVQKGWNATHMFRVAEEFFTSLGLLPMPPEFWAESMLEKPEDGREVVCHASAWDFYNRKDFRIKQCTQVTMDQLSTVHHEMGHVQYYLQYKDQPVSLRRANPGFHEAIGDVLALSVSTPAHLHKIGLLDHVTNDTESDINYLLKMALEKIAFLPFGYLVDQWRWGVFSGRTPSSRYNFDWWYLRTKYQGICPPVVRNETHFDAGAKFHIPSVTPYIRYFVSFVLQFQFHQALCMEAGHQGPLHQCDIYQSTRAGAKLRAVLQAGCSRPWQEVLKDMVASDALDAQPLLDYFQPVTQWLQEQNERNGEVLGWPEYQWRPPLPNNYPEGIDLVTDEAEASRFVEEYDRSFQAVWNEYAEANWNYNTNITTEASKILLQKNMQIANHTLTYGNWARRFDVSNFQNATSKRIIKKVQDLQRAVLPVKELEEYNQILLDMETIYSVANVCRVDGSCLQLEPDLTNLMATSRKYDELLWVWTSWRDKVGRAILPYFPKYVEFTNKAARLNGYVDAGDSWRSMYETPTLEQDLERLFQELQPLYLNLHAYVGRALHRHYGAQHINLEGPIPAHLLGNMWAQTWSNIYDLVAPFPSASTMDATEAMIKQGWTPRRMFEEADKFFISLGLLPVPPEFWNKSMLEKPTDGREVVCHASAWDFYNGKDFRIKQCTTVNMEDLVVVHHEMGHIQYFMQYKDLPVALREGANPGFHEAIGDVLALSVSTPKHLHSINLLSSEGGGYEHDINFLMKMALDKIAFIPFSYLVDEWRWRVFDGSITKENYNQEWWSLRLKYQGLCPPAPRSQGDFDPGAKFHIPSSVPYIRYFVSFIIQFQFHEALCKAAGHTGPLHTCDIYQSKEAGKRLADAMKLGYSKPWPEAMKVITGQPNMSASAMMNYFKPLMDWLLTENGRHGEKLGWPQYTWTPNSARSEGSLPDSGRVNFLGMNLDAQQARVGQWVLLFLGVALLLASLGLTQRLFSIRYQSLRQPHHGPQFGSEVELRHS
method-description: biochemical
Format: tissue-based, Lung
reported-property: IC50

Example entries and their recorded answers appear below.
Cc1ccnc(NS(=O)(=O)c2ccc(N)cc2)n1 [SULFAMERAZINE]
Not Active
CCN(CC)CCNC(=O)c1cc(Cl)c(N)cc1OC [METOCLOPRAMIDE]
Not Active
Nc1nc(F)nc2c1ncn2[C@@H]1O[C@H](CO)[C@@H](O)[C@@H]1O [FLUDARABINE]
Not Active
O=C(O)c1cc(/N=N/c2ccc(S(=O)(=O)Nc3ccccn3)cc2)ccc1O [SULFASALAZINE]
Not Active
C[C@H]1C[C@H]2[C@@H]3CCC4=CC(=O)C=C[C@]4(C)[C@@]3(F)[C@@H](O)C[C@]2(C)[C@@]1(O)C(=O)CO [BETAMETHASONE]
Not Active

Would you kindly share the measured IC50 for CCN(CC)C(=S)SSC(=S)N(CC)CC ?
Not Active

Queued: CCN1CCN(C(=O)N[C@@H](C(=O)N[C@@H]2C(=O)N3[C@@H]2SC(C)(C)[C@@H]3C(=O)O)c2ccccc2)C(=O)C1=O [PIPERACILLIN]
Not Active

Also, CC1(C)[C@H](C(=O)O)N2C(=O)C[C@H]2S1(=O)=O [SULBACTAM] please.
Not Active

Consider next the molecule Cc1[nH]c(=O)c(C#N)cc1-c1ccncc1 [MILRINONE] in the same way.
Not Active

* * *

Listed compounds paired with reported Ki
method-description: DRUGMATRIX: Leukotriene, BLT (LTB4) radioligand binding (ligand: [3H]LTB4)
Assay type: cell membranes, Membrane
assay-setup: u-937; Not Active = under 50% inhibition at 10 µM; read-out: Ki
Kindly answer with a numeric value in µM, unit omitted.

CCN(CC)C(=S)SSC(=S)N(CC)CC
7.58

Continue with the next compound.
Recorded Ki of c1ccc2sc(SSc3nc4ccccc4s3)nc2c1 [BENZOTHIAZYL DISULFIDE] , please.
1.3

* * *

measurement-target: Neuropeptide Y receptor type 1 (Homo sapiens, UniProt P25929); further: in other assays of this panel Not Active means under 50% inhibition at 10 µM
Sequence (P25929 whole entry): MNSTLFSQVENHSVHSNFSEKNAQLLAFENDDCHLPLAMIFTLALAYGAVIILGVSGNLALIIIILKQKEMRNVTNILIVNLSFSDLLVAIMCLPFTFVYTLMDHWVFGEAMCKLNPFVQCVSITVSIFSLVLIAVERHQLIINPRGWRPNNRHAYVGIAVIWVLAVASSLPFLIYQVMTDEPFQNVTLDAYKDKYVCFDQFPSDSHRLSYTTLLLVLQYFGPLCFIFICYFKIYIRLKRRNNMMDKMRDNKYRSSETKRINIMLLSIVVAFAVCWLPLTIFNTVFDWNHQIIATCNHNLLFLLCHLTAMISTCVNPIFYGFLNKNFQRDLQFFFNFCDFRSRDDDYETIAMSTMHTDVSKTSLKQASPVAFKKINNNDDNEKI
Type: cell membranes, Membrane
assay-setup: sk-n-mc
reported-property: IC50

Worked cases, answers included:
CC(C)Cn1cnc2c(N)nc3ccccc3c21
Not Active
C#C[C@]1(O)CC[C@H]2[C@@H]3CCC4=CC(=O)CC[C@@H]4[C@H]3CC[C@@]21C
Not Active
CC(=O)Nc1ccc2c(c1)Cc1ccccc1-2
Not Active
CC(C)NCC(O)COc1ccc(CC(N)=O)cc1 (centres undefined)
Not Active
O=C1c2ccccc2C(=O)C1c1ccccc1
Not Active
CCOc1cc(N)c(Cl)cc1C(=O)NCC1CN(Cc2ccc(F)cc2)CCO1 (centres undefined) [MOSAPRIDE]
Not Active
CCO
Not Active
CCCCCCNC(=O)n1cc(F)c(=O)[nH]c1=O
Not Active

Requested read-out: IC50. Entry: C[C@]12CC[C@@H](O)C[C@@H]1CC[C@@H]1[C@@H]2CC[C@]2(C)C(=O)CC[C@@H]12
Not Active

* * *

measurement-target: Cytochrome P450 2A6 (Homo sapiens); further: in other assays of this panel Not Active means under 50% inhibition at 10 µM
Sequence (P11509 whole entry): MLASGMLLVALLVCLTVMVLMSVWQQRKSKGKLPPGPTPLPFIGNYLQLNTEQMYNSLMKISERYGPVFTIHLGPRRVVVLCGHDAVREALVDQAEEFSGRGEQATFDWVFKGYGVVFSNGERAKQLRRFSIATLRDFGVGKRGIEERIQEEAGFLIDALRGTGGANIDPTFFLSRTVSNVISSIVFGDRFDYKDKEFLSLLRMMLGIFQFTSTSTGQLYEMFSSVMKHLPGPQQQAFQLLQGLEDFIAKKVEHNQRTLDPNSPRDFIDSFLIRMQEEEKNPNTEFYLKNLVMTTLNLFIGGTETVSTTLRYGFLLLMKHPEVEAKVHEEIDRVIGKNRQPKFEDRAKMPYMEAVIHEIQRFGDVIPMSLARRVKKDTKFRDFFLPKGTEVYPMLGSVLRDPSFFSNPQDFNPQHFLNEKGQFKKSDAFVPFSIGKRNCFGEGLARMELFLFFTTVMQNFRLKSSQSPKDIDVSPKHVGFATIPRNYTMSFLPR
assay-setup: bti-tn-5b1-4
reported-property: IC50

Record excerpt, results attached:
C=CCN1CC[C@]23c4c5ccc(O)c4O[C@H]2/C(=N/N=C2\CC[C@@]4(O)[C@H]6Cc7ccc(O)c8c7[C@@]4(CCN6CC=C)[C@H]2O8)CC[C@@]3(O)[C@H]1C5
Not Active
Cc1ccnc2c1NC(=O)c1cccnc1N2C1CC1
Not Active
O=[As][O-].[Na+] [SODIUM ARSENITE]
Not Active
O=c1[nH]cnc2c1ncn2[C@H]1CC[C@@H](CO)O1
Not Active
CC1(COc2ccc(CC3SC(=O)NC3=O)cc2)CCCCC1 (centres undefined)
Not Active
CN1C[C@H](CNC(=O)OCc2ccccc2)C[C@@H]2c3cccc4c3c(cn4C)C[C@H]21
Not Active
CC1=C(/C=C/C(C)=C/C=C/C(C)=C/C(=O)O)C(C)(C)CCC1
Not Active
O=C1CC[C@@]2(O)[C@H]3Cc4ccc(O)c5c4[C@@]2(CCN3CC2CC2)[C@H]1O5 [NALTREXONE]
Not Active

Please look up its IC50: CC12CCC(CC1=O)C2(C)C (centres undefined)
Not Active
